Entry source: paper PMC5642495

# Assay Target: W741L-AR (Homo sapiens, UniProt P10275, W742L)
# Construct: expressed in transfected cells; host or cells: PC-3
# Sequence (P10275 1-920 W742L): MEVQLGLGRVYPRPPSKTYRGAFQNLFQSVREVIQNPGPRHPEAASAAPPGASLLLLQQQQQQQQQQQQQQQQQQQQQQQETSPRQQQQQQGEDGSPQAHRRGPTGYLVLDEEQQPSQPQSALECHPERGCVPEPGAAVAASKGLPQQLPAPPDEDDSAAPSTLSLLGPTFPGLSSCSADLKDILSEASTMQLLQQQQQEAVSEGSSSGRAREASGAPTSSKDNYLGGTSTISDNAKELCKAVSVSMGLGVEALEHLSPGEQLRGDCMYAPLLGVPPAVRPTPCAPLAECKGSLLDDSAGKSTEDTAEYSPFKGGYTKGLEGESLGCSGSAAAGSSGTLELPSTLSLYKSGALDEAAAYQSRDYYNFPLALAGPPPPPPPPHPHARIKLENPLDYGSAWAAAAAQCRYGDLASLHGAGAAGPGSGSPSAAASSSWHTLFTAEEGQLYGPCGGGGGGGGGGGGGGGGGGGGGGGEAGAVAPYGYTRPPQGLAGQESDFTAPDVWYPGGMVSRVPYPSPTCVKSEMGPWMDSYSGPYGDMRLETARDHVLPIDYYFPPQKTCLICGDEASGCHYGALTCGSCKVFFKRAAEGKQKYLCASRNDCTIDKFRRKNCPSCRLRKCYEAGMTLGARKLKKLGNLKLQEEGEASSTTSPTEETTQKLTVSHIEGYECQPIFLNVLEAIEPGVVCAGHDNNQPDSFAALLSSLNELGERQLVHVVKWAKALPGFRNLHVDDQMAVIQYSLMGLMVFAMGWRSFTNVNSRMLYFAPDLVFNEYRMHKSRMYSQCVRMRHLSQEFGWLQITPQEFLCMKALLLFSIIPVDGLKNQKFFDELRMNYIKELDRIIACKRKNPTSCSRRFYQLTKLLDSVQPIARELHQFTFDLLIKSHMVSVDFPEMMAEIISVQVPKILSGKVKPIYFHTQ
# Assay Info: mammalian two-hybrid (MM2H) assay, peptide interaction with W741L-AR
# Assay type: cell-based
# Experimental Conditions: PC-3 cells; ethanol; Gal-4 = 1
Ends that are not written are not given here.
Each item that follows carries a reported W741L-AR Ethanol, peptide-AR interaction in MM2H assay.
Readout: W741L-AR Ethanol, peptide-AR interaction in MM2H assay

| Substance | Val |
| --- | --- |
| C411-FY: phage display screened peptide NDTPVK-FAHFY-H (NDTPVKFAHFYH; also: fused to Gal4 DNA-binding domain, end not given here) | 2 |
| CA9-FY: phage display screened peptide SL-FTSFY-TGSGS (SLFTSFYTGSGS; also: fused to Gal4 DNA-binding domain, end not given here) | 5 |
| C8-FY: phage display screened peptide GD-FKSFY-LATTW (GDFKSFYLATTW; also: fused to Gal4 DNA-binding domain, end not given here) | 2 |

###

# Assay Target: wt-AR (Homo sapiens)
# Construct: expressed in transfected cells; host or cells: PC-3
# Sequence (P10275 1-920): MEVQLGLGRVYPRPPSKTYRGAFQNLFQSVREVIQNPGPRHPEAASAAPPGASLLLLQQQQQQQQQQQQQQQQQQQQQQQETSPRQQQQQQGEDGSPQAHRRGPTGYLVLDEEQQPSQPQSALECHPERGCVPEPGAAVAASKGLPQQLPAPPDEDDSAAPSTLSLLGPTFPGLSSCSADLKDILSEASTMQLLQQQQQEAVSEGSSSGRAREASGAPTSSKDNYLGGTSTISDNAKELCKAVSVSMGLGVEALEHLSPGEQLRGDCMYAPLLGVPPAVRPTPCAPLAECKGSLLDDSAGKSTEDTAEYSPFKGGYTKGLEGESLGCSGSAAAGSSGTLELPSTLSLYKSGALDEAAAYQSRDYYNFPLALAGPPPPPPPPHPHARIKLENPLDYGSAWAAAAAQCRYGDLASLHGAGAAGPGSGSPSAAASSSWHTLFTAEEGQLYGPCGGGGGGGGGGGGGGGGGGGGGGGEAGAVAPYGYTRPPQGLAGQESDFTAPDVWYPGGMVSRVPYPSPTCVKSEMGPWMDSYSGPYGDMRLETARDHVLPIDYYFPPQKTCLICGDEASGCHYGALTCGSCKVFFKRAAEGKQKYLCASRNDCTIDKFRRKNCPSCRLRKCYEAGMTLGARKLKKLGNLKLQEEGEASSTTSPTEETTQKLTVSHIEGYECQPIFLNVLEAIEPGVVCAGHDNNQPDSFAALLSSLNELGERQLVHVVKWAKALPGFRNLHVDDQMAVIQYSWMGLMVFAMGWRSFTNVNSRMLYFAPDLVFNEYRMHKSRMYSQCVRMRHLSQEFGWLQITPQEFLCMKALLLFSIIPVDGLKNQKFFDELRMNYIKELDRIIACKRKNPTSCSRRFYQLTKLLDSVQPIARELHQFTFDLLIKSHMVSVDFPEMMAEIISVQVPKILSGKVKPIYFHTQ
# Assay Info: mammalian two-hybrid (MM2H) assay, peptide interaction with wt-AR
# Type: cell-based
# Experimental Conditions: PC-3 cells; ethanol; Gal-4 = 1
Ends that are not written are not given here.
Readout: wt-AR Ethanol, peptide-AR interaction in MM2H assay

| Substance | Val |
| --- | --- |
| #3-18: positive control peptide NTNA-FSRLF-YPS (NTNAFSRLFYPS; also: fused to Gal4 DNA-binding domain, end not given here) [reference compound] | 10 |
| RIP-p: short peptide of novel AR coregulator candidate RIPK1, GIEEK-FRPFY-LSQLE (GIEEKFRPFYLSQLE; also: fused to Gal4 DNA-binding domain (not in chain)) | 2 |
| CA9-FY: phage display screened peptide SL-FTSFY-TGSGS (SLFTSFYTGSGS; also: fused to Gal4 DNA-binding domain, end not given here) | 20 |
| C1-FY: phage display screened peptide SYT-FNQFY-YSTA (SYTFNQFYYSTA; also: fused to Gal4 DNA-binding domain, end not given here) | 19 |
